B1: TPR t1 (parent)
chain: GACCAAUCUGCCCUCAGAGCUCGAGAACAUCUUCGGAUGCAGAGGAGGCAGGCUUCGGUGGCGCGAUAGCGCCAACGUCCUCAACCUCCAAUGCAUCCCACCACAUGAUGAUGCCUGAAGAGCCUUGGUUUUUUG

Variants of: B1
Experiment: polymerase ribozyme fitness, log enrichment relative to wild type (log ratio); higher = more active; in vitro selection for triplet polymerase activity
Known polymerase ribozyme fitness (log ratio) of a selection of variants
The reply should be a number, written without any unit.

In the examples that follow, each entry is paired with its recorded polymerase ribozyme fitness (log ratio).
{"mutant.code": "G19C G45A G60A U106A", "polymerase ribozyme fitness (log ratio)": -4.35}
{"mutant.code": "C94A C114U", "polymerase ribozyme fitness (log ratio)": -2.56}
{"mutant.code": "U7A C13U A41U C82A G127A", "polymerase ribozyme fitness (log ratio)": -2.71}

Challenge: polymerase ribozyme fitness (log ratio) lookup needed for C56U G61U U112C A118C , thanks.
Response given: -4.53
